Hey, just so you know, these numbers are from BigSolDB 2.1.

Settings: in n-propanol, 298.15 K
reportedMetric: solubility (mole fraction)
Write the value as a bare number.

*Q* Determine from records and report solubility (mole fraction) for OC[C@@H](O)[C@@H](O)[C@H](O)[C@@H](O)CO
*A* 0.00124

###

Conditions: in methanol, 278.15 K
reportedMetric: solubility (mole fraction)
Write the value as a bare number.

*Q* Determine from records and report solubility (mole fraction) for OC[C@@H](O)[C@@H](O)[C@H](O)[C@@H](O)CO
*A* 0.00205

###

Conditions: in methanol, 298.15 K
reportedMetric: solubility (mole fraction)
Write the value as a bare number.

*Q* Determine from records and report solubility (mole fraction) for OC[C@@H](O)[C@@H](O)[C@H](O)[C@@H](O)CO
*A* 0.00585

###

Conditions: in n-butanol, 283.15 K
reportedMetric: solubility (mole fraction)
Write the value as a bare number.

*Q* Determine from records and report solubility (mole fraction) for OC[C@@H](O)[C@@H](O)[C@H](O)[C@@H](O)CO
*A* 0.000533

###

Conditions: in THF, 293.15 K
reportedMetric: solubility (mole fraction)
Write the value as a bare number.

*Q* Determine from records and report solubility (mole fraction) for OC[C@@H](O)[C@@H](O)[C@H](O)[C@@H](O)CO
*A* 0.000489

###

Conditions: in acetone, 283.15 K
reportedMetric: solubility (mole fraction)
Write the value as a bare number.

*Q* Determine from records and report solubility (mole fraction) for OC[C@@H](O)[C@@H](O)[C@H](O)[C@@H](O)CO
*A* 0.000255

###

Conditions: in ethanol, 278.15 K
reportedMetric: solubility (mole fraction)
Write the value as a bare number.

*Q* Determine from records and report solubility (mole fraction) for OC[C@@H](O)[C@@H](O)[C@H](O)[C@@H](O)CO
*A* 0.000598

###

Settings: in ethanol, 288.15 K
reportedMetric: solubility (mole fraction)
Write the value as a bare number.

*Q* Determine from records and report solubility (mole fraction) for OC[C@@H](O)[C@@H](O)[C@H](O)[C@@H](O)CO
*A* 0.000944

###

Conditions: in n-propanol, 293.15 K
reportedMetric: solubility (mole fraction)
Write the value as a bare number.

*Q* Determine from records and report solubility (mole fraction) for OC[C@@H](O)[C@@H](O)[C@H](O)[C@@H](O)CO
*A* 0.00102

###

Conditions: in ethyl acetate, 283.15 K
reportedMetric: solubility (mole fraction)
Write the value as a bare number.

*Q* Determine from records and report solubility (mole fraction) for OC[C@@H](O)[C@@H](O)[C@H](O)[C@@H](O)CO
*A* 0.000259

###

Details: in ethanol, 283.15 K
reportedMetric: solubility (mole fraction)
Write the value as a bare number.

*Q* Determine from records and report solubility (mole fraction) for OC[C@@H](O)[C@@H](O)[C@H](O)[C@@H](O)CO
*A* 0.000753

###

Conditions: in n-butanol, 298.15 K
reportedMetric: solubility (mole fraction)
Write the value as a bare number.

*Q* Determine from records and report solubility (mole fraction) for OC[C@@H](O)[C@@H](O)[C@H](O)[C@@H](O)CO
*A* 0.000895

###

Conditions: in THF, 288.15 K
reportedMetric: solubility (mole fraction)
Write the value as a bare number.

*Q* Determine from records and report solubility (mole fraction) for OC[C@@H](O)[C@@H](O)[C@H](O)[C@@H](O)CO
*A* 0.000446
